# System: HT-29
# procedure_details: Antiproliferative activity against human HT-29 cells at 10 uM assessed as cell growth inhibition relative to control
# Format: functional
# assay_setup: values are per cent of control
experimental_readout: growth, % of control at 10 µM (%)
The answer is to be given in %; state only the numeric part.

[Q] Item CCOC(=O)C[C@H]1[C@@H](O[Si](C)(C)C(C)(C)C)[C@H](n2cnc3c(NC(=O)Nc4ccccc4)ncnc32)O[C@@H]1COC(=O)NC has what recorded growth, % of control at 10 µM?
[A] 9

[Q] Item CCOC(=O)C=C1[C@@H](O[Si](C)(C)C(C)(C)C)[C@H](n2cnc3c(N)ncnc32)O[C@@H]1CNC(=O)NC has what recorded growth, % of control at 10 µM?
[A] 65

[Q] Item CCOC(=O)C[C@H]1[C@@H](O[Si](C)(C)C(C)(C)C)[C@H](n2cnc3c(NC(=O)Nc4ccccc4)ncnc32)O[C@@H]1CN=[N+]=[N-] has what recorded growth, % of control at 10 µM?
[A] 104

[Q] Item CCOC(=O)C[C@H]1[C@@H](O[Si](C)(C)C(C)(C)C)[C@H](n2cnc3c(N)ncnc32)O[C@@H]1CO has what recorded growth, % of control at 10 µM?
[A] 98

[Q] Item CCOC(=O)C[C@H]1[C@@H](O[Si](C)(C)C(C)(C)C)[C@H](n2cnc3c(N)ncnc32)O[C@@H]1CNC(=O)NC has what recorded growth, % of control at 10 µM?
[A] 111

[Q] Item CCOC(=O)C[C@H]1[C@@H](O[Si](C)(C)C(C)(C)C)[C@H](n2cnc3c(N)ncnc32)O[C@@H]1COC(=O)NC has what recorded growth, % of control at 10 µM?
[A] 100

[Q] Item CNC(=O)NC[C@H]1O[C@@H](n2cnc3c(NC(=O)Nc4ccccc4)ncnc32)[C@H](O[Si](C)(C)C(C)(C)C)[C@@H]1O[Si](C)(C)C(C)(C)C has what recorded growth, % of control at 10 µM?
[A] -68
